pKi: −log10 of the molar value.
// read-out pKi, gathered for Adenosine receptor A2a (Homo sapiens) from published studies
Class definitions on pKi: A = under 6, B = from 6 up to 7, C = 7 and over

See these solved cases before continuing.
>>> class("Cc1ccc(-c2nc(N)nc3c2cnn3CCCCCCC(=O)NO)o1")
"B"
>>> class("CCNC(=O)[C@H]1O[C@@H](n2cnc3c(Nc4ccc(OCC(=O)Nc5ccc(C(C)(C)C)cc5)cc4)ncnc32)[C@H](O)[C@@H]1O")
"A"
>>> class("CCc1cnn([C@H]2C[C@@H](n3cnc4c(N)nc(N[C@H](CO)Cc5ccccc5)nc43)[C@H](O)[C@@H]2O)c1")
"B"
>>> class("c1coc(-c2nc(Nc3cncnc3)ncc2-c2ccncn2)c1")
"A"
>>> class("O=C(c1ccccc1)N(C(=O)c1ccccc1)c1nc(Cl)c2cn(CCc3ccccc3)nc2n1")
"A"

Q. GET /class?item= COCCN(C)c1cccc(-c2cc(NC(C)=O)nc(-n3nc(C)cc3C)n2)n1
A. C

Q. Do the same for CCOC(=O)COc1ccc(-c2cc3c([nH]2)c(=O)n(CC)c(=O)n3CCCOC)cc1 please
A. B

Q. Do the same for Cc1cc(F)cc(-c2nc(NC(=O)c3cccnc3)sc2-c2ccncc2)c1 please
A. A

* * *

pKi: −log10 of the molar value.
// read-out pKi, gathered for Adenosine receptor A2a (Homo sapiens, UniProt P29274) from published studies
// Not fulfilled strictly below 6 in pKi; Fulfilled otherwise

See these solved cases before continuing.
>>> class("CCCn1c(=O)c2[nH]c(-c3ccc(OCC(=O)Nc4ccc(Cl)cc4)cc3)c(Cl)c2n(CCC)c1=O")
"Fulfilled"
>>> class("CC(C)c1nc2c(=O)n(Cc3ccccc3)nc(-c3ccncc3)c2c2cc(-c3ccccc3)nn12")
"Not fulfilled"
>>> class("Cc1cc(C)n(-c2cc(NC(=O)CN3CCN(C)CC3)nc(-c3ccc(C)o3)n2)n1")
"Fulfilled"

Next item in the queue.
Q. Hello, I need to know if CCC(=O)Nc1cc(-c2ccc3c(c2)OCO3)nc(-c2ccc3c(c2)OCO3)n1 has measured pKi not below 6. Thanks!
A. Not fulfilled

* * *

// read-out Ki, gathered for Adenosine receptor A2a (Homo sapiens) from published studies
Give the value, in units of nM, as a plain number.

Some solved entries appear below for comparison.
>>> result_number("COc1ccc(NC(=O)Nc2nc3nn(Cc4cccc5ccccc45)cc3c3nc(-c4ccco4)nn23)cc1")
3260
>>> result_number("CCNc1nc2nn(C)cc2c2nc(-c3ccco3)nn12")
208
>>> result_number("Nc1nc(-c2ccco2)c2cnn(Cc3cccnc3)c2n1")
28
>>> result_number("Nc1nc(-c2ccc(NC(=O)CCN3CCOCC3)cc2)cn2c(=O)n(-c3ccccc3)nc12")
3.6
>>> result_number("O=C(Cc1ccccc1)Nc1nc2nn(CCc3ccccc3)cc2c2nc(-c3ccco3)nn12")
43.9
>>> result_number("CN1CCN(CC(=O)Nc2cc(-n3cccn3)nc(-c3nccs3)n2)CC1")
17
>>> result_number("Nc1nc(-c2ccco2)c2cnn(Cc3ccc(C(=O)Nc4ccccc4N)cc3)c2n1")
1720
>>> result_number("CNC(=O)[C@@]12C[C@@H]1[C@@H](n1cnc3c(NCCc4ccccc4)nc(N=[N+]=[N-])nc31)[C@H](O)[C@@H]2O")
1110

Q. Suppose we examine the compound COCCN(CCc1ccc(F)cc1)c1cc2nc(-c3ccco3)nn2c(N)n1 ; what Ki value has been reported?
A. 1

Q. Do the same for CCCn1ncc2nc(NC(=O)Nc3ccc(OC)cc3)n3nc(-c4ccco4)nc3c21 please
A. 20

Q. Do the same for COc1ccc(N2CCN(C(=O)COc3ccc(-c4cc5c([nH]4)c(=O)n(C)c(=O)n5C)cc3)CC2)cc1 please
A. 170

Q. Do the same for Cn1cc2c(nc(NC(=O)Nc3ccc4ccccc4n3)n3nc(-c4ccco4)nc23)n1 please
A. 810

Q. Do the same for CCNC(=O)[C@H]1OC(n2cnc3c(NCCCCCCNc4ccc([N+](=O)[O-])c5nonc45)ncnc32)[C@H](O)[C@@H]1O (stereo partly drawn) please
A. 6080

Q. Do the same for Nc1nc(N/N=C/c2cccnc2Cl)nc2c1ncn2[C@@H]1O[C@H](CO)[C@@H](O)[C@H]1O please
A. 8.7

Q. Do the same for CCCn1c(=O)c2[nH]c(-c3ccc(OCC(=O)N4CCN(c5nc6ccc(Cl)cc6s5)CC4)cc3)cc2n(CCC)c1=O please
A. 813

* * *

// read-out Ki, gathered for Adenosine receptor A2a (Homo sapiens, UniProt P29274) from published studies
Give the value, in units of nM, as a plain number.

>>> result_number("C=CCN1C(=O)N2CC(CC)N=C2c2[nH]c(-c3cc(OC)no3)nc21 (racemic)")
1520
>>> result_number("Nc1nc(-c2ccco2)c2cnn(CCc3ccc(C(=O)Nc4ccccc4N)cc3)c2n1")
163
>>> result_number("Cn1c(=O)c2c(cc(/C=C/c3ccc(F)cc3)n2C)n(C)c1=O")
423
>>> result_number("Cn1cc2c(nc(NC(=O)c3ccccc3)n3nc(-c4ccccc4)nc23)n1")
324
>>> result_number("Cn1c(=O)c2[nH]c(-c3cccc(OCCN4CCOCC4)c3)nc2n(C)c1=O")
1400
>>> result_number("CC(=O)Nc1cc(-c2cccc(N3CCCOCC3)n2)nc(-n2nc(C)cc2C)n1")
2.3
>>> result_number("Cc1ccc(CNc2ncc(C(=O)O)c3nc(-c4ccco4)nn23)cc1")
1190
>>> result_number("Nc1nc(C(=O)NCc2cccc3c2OCCN3)c2cccc(F)c2n1")
21.5
>>> result_number("Nc1nc2nn(CCc3ccccc3)cc2c2nc(-c3ccccc3)nn12")
196
>>> result_number("Cn1c(=O)c2[nH]c(-c3ccc(OCC(=O)NCc4ccc(Cl)cc4)cc3)cc2n(C)c1=O")
20.4

Q. Suppose we examine the compound CNc1nc(NCc2ccccc2)n2nc(-c3ccco3)nc2n1 ; what Ki value has been reported?
A. 173

Q. Do the same for Nc1nc(-c2ccco2)c2ncn(Cc3ccccc3F)c2n1 please
A. 5

Q. Do the same for Nc1cc(C(=O)NCc2cccc3cccnc23)c2ccccc2n1 please
A. 836

* * *

// read-out Ki, gathered for Adenosine receptor A2a (Homo sapiens) from published studies

>>> result("CCCn1c(=O)c2[nH]c(-c3ccc(O)cc3)c(O)c2n(CCC)c1=O")
"118 nM"
>>> result("OCCNc1nc(-c2ccco2)c2cnn(CCc3ccccc3)c2n1")
"135 nM"
>>> result("Cc1cn2c(nc3c2c(=O)[nH]c(=O)n3Cc2ccccc2)[nH]1")
"> 1000 nM"
>>> result("Nc1nc2c(cnn2CCN2CCN(c3ccc(OCCO)cc3)CC2)c2nc(-c3ccco3)nn12")
"0.6 nM"
>>> result("CCCn1c(=O)c2[nH]c(-c3cnn(Cc4noc(-c5cccc(OC)c5)n4)c3)nc2n(CCC)c1=O")
"> 5000 nM"

Then this compound:
Q. Suppose we examine the compound COC(=O)c1c(N)oc2c(-c3ccc(C)cc3)c3c(C(=O)OC)c(N)oc3cc12 ; what Ki value has been reported?
A. > 100000 nM

* * *

// read-out log10 Ki, gathered for Adenosine receptor A2a (Homo sapiens, UniProt P29274) from published studies
Parameter value (number): base-10 log of Ki in nM.

>>> result_number("C=CCn1c(=O)c2c(nc(Cc3c(F)cccc3F)n2C)n(Cc2ccco2)c1=O")
2.58
>>> result_number("N#Cc1c(N)nc(-c2ccccc2)nc1-c1ccccc1")
1.28
>>> result_number("COc1ccc(CCNc2nc(N)c3nc(-c4ccco4)sc3n2)cc1")
1.51
>>> result_number("Clc1ccc(-c2nc(-c3ccccc3)c3[nH]cnc3n2)cc1")
2.50
>>> result_number("Nc1nc(NCc2ccccc2)nc2nc(-c3ccco3)nn12")
0.05

Q. Suppose we examine the compound COc1cc(-c2cc3c([nH]2)c(=O)n(C)c(=O)n3C)ccc1OCC(=O)N1CCN(c2ccccc2)CC1 ; what log10 Ki value has been reported?
A. 3.16

Q. Do the same for COc1cc(/C=N/Nc2nc(N)c3ncn([C@@H]4O[C@H](CO)[C@@H](O)[C@H]4O)c3n2)cc(OC)c1OC please
A. 3.74

Q. Do the same for CC(O)CNc1nc2nn(C)cc2c2nc(-c3ccco3)nn12 (stereo not given) please
A. 2.13

Q. Do the same for CN1CCN(C(=O)c2cccc(-c3nc(N)nc(-c4ccccc4O)n3)c2)CC1 please
A. 0.01

* * *

// read-out pKi, gathered for Adenosine receptor A2a (Homo sapiens, UniProt P29274) from published studies
// pKi: -log10(molar conc.)

Q. Provide the documented pKi with Adenosine receptor A2a (Homo sapiens, UniProt P29274) as the system for CC(C)n1cc2c(Cl)nc(NC(=O)c3ccc(C(F)(F)F)cc3)nc2n1
Sequence (P29274 whole entry): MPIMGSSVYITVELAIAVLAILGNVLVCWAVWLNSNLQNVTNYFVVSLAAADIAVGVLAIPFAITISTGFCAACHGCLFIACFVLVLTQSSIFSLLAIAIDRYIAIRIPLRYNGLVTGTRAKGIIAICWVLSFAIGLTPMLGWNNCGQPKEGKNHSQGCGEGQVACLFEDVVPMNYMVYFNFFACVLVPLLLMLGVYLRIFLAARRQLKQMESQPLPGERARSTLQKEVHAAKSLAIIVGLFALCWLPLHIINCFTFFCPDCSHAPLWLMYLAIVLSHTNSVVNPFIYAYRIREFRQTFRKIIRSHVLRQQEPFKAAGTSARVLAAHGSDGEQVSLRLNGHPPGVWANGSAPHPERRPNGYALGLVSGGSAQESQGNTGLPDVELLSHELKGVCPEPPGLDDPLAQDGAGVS
A. 5.57

Q. Do the same for CCCC(=O)Nc1cc(-c2cccs2)nc(-c2cccs2)n1 please
A. 6.82

Q. Do the same for CCCn1c(=O)c2[nH]c(-c3ccc(OCC(=O)Nc4ccc(S(=O)(=O)c5ccccc5)cc4)cc3)cc2n(CCC)c1=O please
A. 6.55

Q. Do the same for Cc1ccc(-c2nc(N)c3nc(-c4ccco4)sc3n2)o1 please
A. 8.63

Q. Do the same for Cn1cc2c(nc(N)n3nc(-c4ccccc4)nc23)n1 please
A. 6.92

Q. Do the same for Nc1nc(NCCN2CCN(c3ccc(S(N)(=O)=O)cc3)CC2)nc2sc(-c3ccco3)nc12 please
A. 7.07

Q. Do the same for CCCC(=O)Nc1nc(-c2ccccc2)c(C#N)c(-c2ccc3c(c2)OCO3)n1 please
A. 7.67

Q. Do the same for N#Cc1cccc(-c2nc3c4cnn(CCc5ccc(C(=O)Nc6ccccc6N)cc5)c4nc(N)n3n2)c1 please
A. 8.19
